Just for reference, patent US20240108577A1 is where these values come from.

assayProtocol: Stability of Syqe cartridges stored at 30° C.±2° C. (65% RH±5% RH), LOD and U-HPLC
Format: physicochemical
runConditions: 65% RH, up to 6 months, one-way ANOVA
observable: change in phytocannabinoid amount during storage

CCCCCc1cc(O)c(C/C=C(\C)CCC=C(C)C)c(O)c1C(=O)O = decreased significantly
CCCCCc1cc2c(c(O)c1C(=O)O)[C@@H]1C=C(C)CC[C@H]1C(C)(C)O2 (relative stereo) = decreased significantly
CCCCCc1cc(O)c2c(c1)OC(C)(C)c1ccc(C)cc1-2 = increased significantly
CCCCCc1cc(O)c2c(c1)OC(C)(C)[C@@H]1CCC(C)=C[C@@H]21 [THC, (−)-Δ^9-trans-tetrahydrocannabinol] = increased significantly
